targetSystem: A2A receptor (Homo sapiens)
protocolNotes: Inhibition of cAMP production in HEK cells
Assay type: cell-based
experimentalConditions: IC50 (nM) (5 nM NECA as agonist, 2% HSA), HEK-293 cells with A2A receptor, 5 nM NECA as agonist, 2% HSA
Procedure: When the A2A receptor is activated, is induces the production of cAMP. HEK-293 cells with a stable transfection of A2A receptor were bought from PerkinElmer® (# ES-011-C). […] Fresh media without the selection marker was added on the day immediately before the experiment to stop selection pressure. […] Compounds of the present invention were diluted 100× in either of the buffers depending on the assay performed. […] The TR-FRET signal was measured after 1 hour using a Spectramax Paradigm (Molecular Devices).
Define the label as 1 when IC50 is strictly less than 10 nM and as -1 in all remaining cases.

> print(dat)
                                   compound  qualitativelabel
1  Nc1nc2c(sc(=O)n2CCN2CCN(c3ccc(OCC(=O)O)cc3)CC2)c2nc(-c3ccco3)nn12                -1
2  Nc1nc2c(sc(=O)n2CCN2CCN(c3ccc(C(=O)O)cc3F)CC2)c2nc(-c3ccco3)nn12                -1
3  C[S@+]([O-])CCOc1ccc(N2CCN(CCn3c(=O)sc4c3nc(N)n3nc(-c5ccco5)nc43)CC2)c(F)c1 (single isomer, unassigned)                 1
4  Nc1nc2c(sc(=O)n2CCN2CCN(c3c(F)cc(OCC(=O)O)cc3F)CC2)c2nc(-c3ccco3)nn12                 1
5  CN(C)CCN(C)C(=O)c1ccc(N2CCN(CCn3c(=O)sc4c3nc(N)n3nc(-c5ccco5)nc43)CC2)c(F)c1                 1

Here's an entry: `Nc1nc2c(sc(=O)n2CCN2CCN(c3ccc(OCC(=O)O)cc3F)CC2)c2nc(-c3ccco3)nn12` . Is its IC50 below 10 nM?
-1

Consider the compound `Nc1nc2c(sc(=O)n2CCN2CCN(c3ccc(C(=O)NCCNCCO)cc3F)CC2)c2nc(-c3ccco3)nn12` . Is its IC50 strictly less than 10 nM?
1

* * *

protocolNotes: in vitro
experimentalConditions: human, Caco-2, pH 7.4
efflux ratio at 120 min, 2 μM below 50 gives 0.0; efflux ratio at 120 min, 2 μM at or above it gives 1.0.

Examples with answers:
molecule	qualitativeLabel
Nc1nc2c(sc(=O)n2CCN2CCN(c3cc(OCC(=O)O)c(F)cc3F)CC2)c2nc(-c3ccco3)nn12 [Compound 43]	1.0
Nc1nc2c(sc(=O)n2CCN2CCN(c3ccc(O[C@H]4CC[S@+]([O-])CC4)cc3F)CC2)c2nc(-c3ccco3)nn12 (single isomer, unassigned) [Compound 122]	1.0
CS(=O)(=O)CCOc1ccc(N2CCN(CCn3c(=O)sc4c3nc(N)n3nc(-c5ccco5)nc43)CC2)c(F)c1 [Compound 78]	0.0
Nc1nc2c(sc(=O)n2CCN2CCN(c3ccc(O[C@@H]4CNC[C@@H]4F)cc3F)CC2)c2nc(-c3ccco3)nn12 [Compound 103]	0.0
Nc1nc2c(sc(=O)n2CCN2CCN(c3cc4c(cc3F)NC(=O)C4)CC2)c2nc(-c3ccco3)nn12 [Compound 79]	0.0
Nc1nc2c(sc(=O)n2CCN2CCN(c3cc(O[C@@H]4CCNC4=O)c(F)cc3F)CC2)c2nc(-c3ccco3)nn12 [Compound 96]	1.0

Shifting focus to the molecule that follows.
Is the recorded value of efflux ratio at 120 min, 2 μM equal to or greater than 50 for this molecule? Nc1nc2c(sc(=O)n2CCN2CCN(c3ccc(OCC4COCCN4)cc3F)CC2)c2nc(-c3ccco3)nn12 (stereo not shown) [Compound 99]
0.0

* * *

targetSystem: A2A receptor (Homo sapiens, UniProt P29274)
Sequence (P29274 whole entry): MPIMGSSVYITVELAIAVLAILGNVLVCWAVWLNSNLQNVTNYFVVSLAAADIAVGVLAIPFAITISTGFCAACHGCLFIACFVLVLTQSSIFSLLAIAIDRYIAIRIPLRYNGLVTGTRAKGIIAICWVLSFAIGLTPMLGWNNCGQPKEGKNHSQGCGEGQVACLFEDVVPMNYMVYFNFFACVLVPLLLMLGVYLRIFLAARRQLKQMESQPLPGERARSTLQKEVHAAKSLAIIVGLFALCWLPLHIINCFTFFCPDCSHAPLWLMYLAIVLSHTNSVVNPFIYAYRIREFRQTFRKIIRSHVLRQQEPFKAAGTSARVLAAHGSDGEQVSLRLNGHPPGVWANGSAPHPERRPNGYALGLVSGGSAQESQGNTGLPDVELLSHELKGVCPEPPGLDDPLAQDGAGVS
protocolNotes: Inhibition of cAMP production in HEK cells
Format: cell-based
experimentalConditions: IC50 (nM) (5 nM NECA as agonist, 2% HSA), HEK-293 cells with A2A receptor, 5 nM NECA as agonist, 2% HSA
Measured IC50 by item
Kindly answer with a numeric value in nM, unit omitted.

# example entries with known answers
> print(dat)
                                smilesinput  measurement
1  NC(=O)c1cccc(N2CCN(CCn3c(=O)sc4c3nc(N)n3nc(-c5ccco5)nc43)CC2)c1            6
2  CS(=O)(=O)c1ccc(N2CCN(CCn3c(=O)sc4c3nc(N)n3nc(-c5ccco5)nc43)CC2)cc1          352
3  C[C@H](CN(C)C)NC(=O)c1ccc(N2CCN(CCn3c(=O)sc4c3nc(N)n3nc(-c5ccco5)nc43)CC2)c(F)c1            2
4  Nc1nc2c(sc(=O)n2CCN2CCN(c3ccc(OCC4CCNCC4)cc3F)CC2)c2nc(-c3ccco3)nn12            6

get_value(item= `Nc1nc2c(sc(=O)n2CCN2CCN(c3ccc(OCCN4CCNCC4)cc3F)CC2)c2nc(-c3ccco3)nn12` , readout=IC50) returns 2

* * *

protocolNotes: Concentration in brain and cerebrospinal fluid compared to plasma
Format: in vivo, mice
experimentalConditions: female, Balb-c, mouse, plasma, po, 10 mg/kg, Plasma Concentration (ng/mL), individual mice, PO 10 mg/kg, 0.500 h, female Balb-c mice
reportedEndpoint: plasma concentration at 0.5 h (ng/mL)
Give the value, in units of ng/mL, as a plain number.

The molecule `NC(=O)COc1cc(N2CCN(CCn3c(=O)sc4c3nc(N)n3nc(-c5ccco5)nc43)CC2)c(F)cc1F` showed plasma concentration at 0.5 h equal to 576

* * *

protocolNotes: in vitro
experimentalConditions: human, Caco-2, pH 7.4
reportedEndpoint: efflux ratio at 120 min, 2 μM

> print(dat)
                                   compound  measurement
1  CC(C)(O)COc1ccc(N2CCN(CCn3c(=O)sc4c3nc(N)n3nc(-c5ccco5)nc43)CC2)c(F)c1            5
2  Nc1nc2c(sc(=O)n2CCN2CCN(c3cc(OCC4CNCCO4)c(F)cc3F)CC2)c2nc(-c3ccco3)nn12 (stereo not shown)          456
3  C[C@H](CN(C)C)NC(=O)c1ccc(N2CCN(CCn3c(=O)sc4c3nc(N)n3nc(-c5ccco5)nc43)CC2)c(F)c1         2200
4  C[S@+]([O-])c1ccc(N2CCN(CCn3c(=O)sc4c3nc(N)n3nc(-c5ccco5)nc43)CC2)c(F)c1 (single isomer, unassigned)           33
5  Nc1nc2c(sc(=O)n2CCN2CCN(c3cc(OCCO)ccc3F)CC2)c2nc(-c3ccco3)nn12           19
6  CNCCNC(=O)COc1ccc(N2CCN(CCn3c(=O)sc4c3nc(N)n3nc(-c5ccco5)nc43)CC2)c(F)c1           38

Looking up `NC(=O)COc1ccc(N2CCN(CCn3c(=O)sc4c3nc(N)n3nc(-c5ccco5)nc43)CC2)c(F)c1` , I found its efflux ratio at 120 min, 2 μM recorded as 24

* * *

targetSystem: A2A receptor (Homo sapiens)
protocolNotes: Inhibition of cAMP production in HEK cells
Format: cell-based
experimentalConditions: IC50 (nM) (5 μM Adenosine as agonist, 2.0% HSA), HEK-293 cells with A2A receptor, 5 μM Adenosine as agonist, 2.0% HSA
reportedEndpoint: IC50
I'd appreciate it if you included the unit after the number.

Illustrative cases are given below, each with its answer.
> print(dat)
                                   compound  reportedendpoint  measurement
1  C[C@@H](Oc1cc(N2CCN(CCn3c(=O)sc4c3nc(N)n3nc(-c5ccco5)nc43)CC2)c(F)cc1F)C(=O)O (single isomer, unassigned)              IC50       810 nM
2  CN(CCNC(=O)c1ccc(N2CCN(CCn3c(=O)sc4c3nc(N)n3nc(-c5ccco5)nc43)CC2)c(F)c1)C1COC1              IC50       211 nM
3  C[S+]([O-])c1ccc(N2CCN(CCn3c(=O)sc4c3nc(N)n3nc(-c5ccco5)nc43)CC2)cc1 (stereo not shown)              IC50      1310 nM
4  CC(C)(O)COc1ccc(N2CCN(CCn3c(=O)sc4c3nc(N)n3nc(-c5ccco5)nc43)CC2)c(F)c1              IC50       220 nM
5  Nc1nc2c(sc(=O)n2CCN2CCN(c3ccc(C(=O)NCC(O)CO)cc3F)CC2)c2nc(-c3ccco3)nn12 (stereo not shown)              IC50       207 nM

Recorded IC50 for `CC(C)(Oc1ccc(N2CCN(CCn3c(=O)sc4c3nc(N)n3nc(-c5ccco5)nc43)CC2)c(F)c1)C(=O)O` on A2A receptor (Homo sapiens) was 719 nM

Form field IC50 for item `NCC(=O)NCCOc1ccc(N2CCN(CCn3c(=O)sc4c3nc(N)n3nc(-c5ccco5)nc43)CC2)c(F)c1` on A2A receptor (Homo sapiens): 79 nM

A2A receptor (Homo sapiens) IC50 of `N#CCOc1cc(N2CCN(CCn3c(=O)sc4c3nc(N)n3nc(-c5ccco5)nc43)CC2)c(F)cc1F` is 495 nM

Field IC50 (A2A receptor (Homo sapiens)), entry `Nc1nc2c(sc(=O)n2CCN2CCN(c3ccc(C(=O)N4CC[S+]([O-])CC4)cc3F)CC2)c2nc(-c3ccco3)nn12` : 3620 nM

Hey, A2A receptor (Homo sapiens) data for `Nc1nc2c(sc(=O)n2CCN2CCN(c3ccc(OCCCC(=O)O)cc3F)CC2)c2nc(-c3ccco3)nn12` : IC50 came out at 423 nM
